organism: Rattus norvegicus; test: Open TG-GATES - Regimen: Single; type: toxicity, organism-based, Sprague-Dawley; parameters: regimen Single, gender Male, age 6 weeks; settings: in vivo, po, 0 mg/kg, 3 h, tissue Blood, route gavage, dose level Control
Listing of recorded Fbg by entry.

| molecule | Fbg [mg/dL] |
| --- | --- |
| C[C@]12CCC(=O)C=C1CC[C@@H]1[C@@H]2CC[C@@]2(C)[C@H]1CC[C@]2(C)O | 277 |
| CCc1oc2ccccc2c1C(=O)c1cc(I)c(O)c(I)c1 | 205.2 |
| C[C@](N)(Cc1ccc(O)c(O)c1)C(=O)O | 253.4 |
| CC(=O)Oc1cc(C(C)C)c(OCCN(C)C)cc1C | 307.8 |
| Oc1ncnc2[nH]ncc12 | 211 |
| CC(C)(S)[C@@H](N)C(=O)O | 302 |
| CCN1CCCC1CNC(=O)c1cc(S(N)(=O)=O)ccc1OC (stereo not given) [SULPIRIDE] | 247.8 |
| C#C[C@]1(O)CC[C@H]2[C@@H]3CCc4cc(O)ccc4[C@H]3CC[C@@]21C | 256 |
| CC(C)C(=O)Nc1ccc([N+](=O)[O-])c(C(F)(F)F)c1 [FLUTAMIDE] | 211.2 |
| Nc1nc(N)c2nc(-c3ccccc3)c(N)nc2n1 | 287.4 |

----------
species on record: Rattus norvegicus; test: Open TG-GATES - Regimen: Daily Repeat; assay type: toxicity, organism-based, Sprague-Dawley; design: regimen Daily Repeat, gender Male, age 6 weeks; conditions: in vivo, po, 0 mg/kg, 72 h, tissue Plasma, route gavage, dose level Control, time 3 day
Entries and their Na

| compound | Na, meq/L |
| --- | --- |
| CC(C)C(=O)Nc1ccc([N+](=O)[O-])c(C(F)(F)F)c1 [FLUTAMIDE] | 139.8 |
| CCN1CCCC1CNC(=O)c1cc(S(N)(=O)=O)ccc1OC (stereo unspecified) [SULPIRIDE] | 140.2 |
| CC(=O)Oc1cc(C(C)C)c(OCCN(C)C)cc1C [MOXISYLYTE] | 142.4 |
| CC(C)(S)[C@@H](N)C(=O)O [PENICILLAMINE] | 144.2 |
| O=C(O)c1cccnc1 [NIACIN] | 139.2 |
| CCSCC[C@H](N)C(=O)O [ETHIONINE] | 140.4 |
| O=C(N[C@H](CO)[C@H](O)c1ccc([N+](=O)[O-])cc1)C(Cl)Cl [CHLORAMPHENICOL] | 140.4 |
| C[C@]12CCC(=O)C=C1CC[C@@H]1[C@@H]2CC[C@@]2(C)[C@H]1CC[C@]2(C)O [METHYLTESTOSTERONE] | 142.6 |
| Nc1nc(N)c2nc(-c3ccccc3)c(N)nc2n1 | 142.6 |
| CCc1oc2ccccc2c1C(=O)c1cc(I)c(O)c(I)c1 [BENZIODARONE] | 141 |
| C[C@](N)(Cc1ccc(O)c(O)c1)C(=O)O [METHYLDOPA] | 144.6 |
| C#C[C@]1(O)CC[C@H]2[C@@H]3CCc4cc(O)ccc4[C@H]3CC[C@@]21C [ETHINYL ESTRADIOL] | 143.2 |
| CN1C(=O)OC(C)(C)C1=O [TRIMETHADIONE] | 141.6 |
| CC(=N)S [THIOACETAMIDE] | 137.6 |
| CCC(C)(C)C(=O)O[C@H]1C[C@@H](C)C=C2C=C[C@H](C)[C@H](CC[C@@H]3C[C@@H](O)CC(=O)O3)[C@H]21 [SIMVASTATIN] | 140.2 |
| Oc1ncnc2[nH]ncc12 [ALLOPURINOL] | 137.8 |
